System: RAW-Dual
experimentalProtocol: NF-kB SEAP reporter activity, fold change vs agonist alone; cytotoxicity flag (confluency mask): not cytotoxic; higher = enhanced NF-kB activity
conditionParameters: agonist: ODN 1826 (TLR9) 0.5 ug/mL
Whole data set: some 2,900 compounds, median “NF-kB SEAP reporter activity, fold change vs agonist alone” near 0.99, cut for the highest 2% near 2.6. The list comes from a sample in which the highest values are over-represented; it also holds close analogues and randomly drawn compounds.
Answer each item with its documented NF-kB SEAP reporter activity.
Please reply with the number alone, leaving off any unit.

Determine from records and report NF-kB SEAP reporter activity for CC(N)C12CC3CC(CC(C3)C1)C2.Cl (stereo not drawn) (library stock concentration (final ~1000-fold dilution): 10 mM)
0.619

Determine from records and report NF-kB SEAP reporter activity for CC(C)n1cc(-c2ccc3c(c2)N(C)CC3)c2c(NS(=O)(=O)c3ccn(C)n3)ccnc21 (library stock concentration (final ~1000-fold dilution): 10 mM)
1.12

Determine from records and report NF-kB SEAP reporter activity for CSC1(C(=O)Nc2ccc3[nH]nc(-c4ccc(OC(C)C)nc4)c3c2)CCN(CC(=O)N2CC=C(c3ccc(-c4ncn(C)n4)cc3)CC2)C1 (stereo not drawn) (library stock concentration (final ~1000-fold dilution): 10 mM)
0.343

---

Answer each item with its documented NF-kB SEAP reporter activity.
Tested on: RAW-Dual
experimentalProtocol: NF-kB SEAP reporter activity, fold change vs agonist alone; cytotoxicity flag (confluency mask): not cytotoxic; higher = enhanced NF-kB activity
conditionParameters: agonist: ODN 1826 (TLR9) 0.5 ug/mL
Over roughly 2,900 compounds, “NF-kB SEAP reporter activity, fold change vs agonist alone” has its median near 0.99; the highest 2% begin near 2.6. Many of the other results were omitted from the sample, so the highest values are more common in it than they were.

Determine from records and report NF-kB SEAP reporter activity for CCCS(=O)(=O)NC1CC(N(C)c2ncnc3[nH]ccc23)C1 (stereo not given) (library stock concentration (final ~1000-fold dilution): 10 mM)
0.746

Determine from records and report NF-kB SEAP reporter activity for CC(C)CN(CC(O)C(Cc1ccccc1)NC(=O)OC1COC2OCCC12)S(=O)(=O)c1ccc(N)cc1.CCO (stereo not given) (library stock concentration (final ~1000-fold dilution): 10 mM)
1.57

Determine from records and report NF-kB SEAP reporter activity for COC(C)Cn1c(=O)n(C)c2cnc3ccc(-c4cncc(C(C)(C)O)c4)cc3c21 (stereo not given) (library stock concentration (final ~1000-fold dilution): 10 mM)
1.26

Determine from records and report NF-kB SEAP reporter activity for c1cc(-c2cnn3cc(-c4ccc(OCCN5CCCCC5)cc4)cnc23)ccn1 (library stock concentration (final ~1000-fold dilution): 2 mM)
0.365

Determine from records and report NF-kB SEAP reporter activity for O=C(NC(C1CC1)C(F)(F)F)c1cc(-c2cnn3cc(-c4ccc(F)cc4)cnc23)cs1 (stereo not given) (library stock concentration (final ~1000-fold dilution): 10 mM)
1.73

---

Tested on: RAW-Dual
experimentalProtocol: NF-kB SEAP reporter activity, fold change vs agonist alone; higher = enhanced NF-kB activity
conditionParameters: library stock concentration (final ~1000-fold dilution): 10 mM; cytotoxicity flag (confluency mask): cytotoxic (confluency <70% of control); agonist: MPLA (TLR4) […]
Whole data set: some 2,900 compounds, median “NF-kB SEAP reporter activity, fold change vs agonist alone” near 0.99, cut for the highest 2% near 2.6. This is one part of a sample in which the highest values are shown more often than they occur.
Labelling field: enter Criterion met if recorded NF-kB SEAP reporter activity is less than 1. Enter Criterion not met if it equals or exceeds that cut-off.

Consider CCC1C(=O)N(C)c2cnc(Nc3ccc(C(=O)NC4CCN(C)CC4)cc3OC)nc2N1C1CCCC1 (centres undefined) . Does its NF-kB SEAP reporter activity lie strictly below 1?
Criterion met

Consider COC(=O)CC(O)(CCCC(C)(C)O)C(=O)OC1C(OC)=CC23CCCN2CCc2cc4c(cc2C13)OCO4 (centres undefined) . Does its NF-kB SEAP reporter activity lie strictly below 1?
Criterion met

Consider O=C(CCCCCCC(=O)Nc1ccccc1)NO . Does its NF-kB SEAP reporter activity lie strictly below 1?
Criterion not met

Consider COc1ccc2c(c1)c(C1=C(c3c[nH]c4ccccc34)C(=O)NC1=O)cn2CCCN(C)C . Does its NF-kB SEAP reporter activity lie strictly below 1?
Criterion not met

Consider CONC(=O)Nc1ccc(-c2sc3c(c2CN(C)C)c(=O)n(-c2ccc(OC)nn2)c(=O)n3Cc2c(F)cccc2F)cc1 . Does its NF-kB SEAP reporter activity lie strictly below 1?
Criterion not met

Consider O=C(c1ccc(Oc2ccccc2)cc1Cl)c1c[nH]c2ncnc(NC3CCC(CO)OC3)c12 (centres undefined) . Does its NF-kB SEAP reporter activity lie strictly below 1?
Criterion met

Consider COc1cc(N2CCC(N)CC2)ccc1Nc1ncc(Cl)c(-c2c[nH]c3ccccc23)n1 . Does its NF-kB SEAP reporter activity lie strictly below 1?
Criterion met

Consider COc1cc(C(=O)NC2CCN(C)CC2)ccc1Nc1ncc2c(n1)N(C1CCCC1)CC(F)(F)C(=O)N2C . Does its NF-kB SEAP reporter activity lie strictly below 1?
Criterion not met

Consider O=C(/C=C/c1ccc(CN(CCO)CCc2c[nH]c3ccccc23)cc1)NO . Does its NF-kB SEAP reporter activity lie strictly below 1?
Criterion not met

Consider CCC(=O)Nc1cccc(Oc2nc(Nc3ccc(N4CCN(C)CC4)cc3OC)ncc2Cl)c1 . Does its NF-kB SEAP reporter activity lie strictly below 1?
Criterion not met

Consider COc1cc(F)ccc1-c1ncnc(Nc2cccc(CS(C)(=N)=O)c2)n1 (centres undefined) . Does its NF-kB SEAP reporter activity lie strictly below 1?
Criterion not met

Consider Cl.Cl.OCCN1CCN(CC/C=C2/c3ccccc3Sc3ccc(C(F)(F)F)cc32)CC1 . Does its NF-kB SEAP reporter activity lie strictly below 1?
Criterion met

Consider CCOC(=O)C1=C(COCCN)NC(C)=C(C(=O)OC)C1c1ccccc1Cl.O=S(=O)(O)c1ccccc1 (centres undefined) . Does its NF-kB SEAP reporter activity lie strictly below 1?
Criterion not met

Consider Cc1cc(Nc2ncc3c(n2)N(C)C(=O)N(c2cc(NC(=O)c4cccc(C(F)(F)F)c4)ccc2C)C3)n(C)n1 . Does its NF-kB SEAP reporter activity lie strictly below 1?
Criterion met

Consider CC(=O)c1ccc2c(c1)c1cc(C(C)=O)ccc1n2CCNC(C)C.Cl . Does its NF-kB SEAP reporter activity lie strictly below 1?
Criterion met

Consider CC(=O)c1ccc2c(c1)c1cc(C(C)=O)ccc1n2CCNC(C)C . Does its NF-kB SEAP reporter activity lie strictly below 1?
Criterion met

Consider COc1cc(NS(C)(=O)=O)ccc1Nc1c2ccccc2nc2ccccc12.Cl . Does its NF-kB SEAP reporter activity lie strictly below 1?
Criterion not met

Consider CCOc1cc(C(=O)N2CCC(N3CCN(C)CC3)CC2)ccc1Nc1ncc2c(n1)N(C1CCCC1)c1ccccc1C(=O)N2C . Does its NF-kB SEAP reporter activity lie strictly below 1?
Criterion not met

Consider Fc1ccc(Nc2nc(Nc3ccc(-c4nc5ccccc5[nH]4)cc3)nc(N3CCOCC3)n2)cc1 . Does its NF-kB SEAP reporter activity lie strictly below 1?
Criterion not met

---

System: RAW-Dual
experimentalProtocol: NF-kB SEAP reporter activity, fold change vs agonist alone; higher = enhanced NF-kB activity
conditionParameters: library stock concentration (final ~1000-fold dilution): 10 mM; cytotoxicity flag (confluency mask): not cytotoxic; agonist: Imiquimod (TLR7) […]
Whole data set: some 2,900 compounds, median “NF-kB SEAP reporter activity, fold change vs agonist alone” near 0.99, cut for the highest 2% near 2.6. For the sample, the highest values were picked, then their nearest neighbours and some compounds at random.
propertyLabel: NF-kB SEAP reporter activity

Determine from records and report NF-kB SEAP reporter activity for [O-][n+]1cccc(-c2nc3c(Cl)cccc3cc2C(Nc2ncnc3cccnc23)C(F)(F)F)c1 (stereo not drawn)
0.648

Determine from records and report NF-kB SEAP reporter activity for CCC1C(=O)N(C)c2cnc(Nc3ccc(C(=O)NC4CCC(N5CCN(CC6CC6)CC5)CC4)cc3OC)nc2N1C(C)C (stereo not drawn)
0.55

Determine from records and report NF-kB SEAP reporter activity for CC1OC(=O)C(C)C1CC(O)C(C)(O)C1CCC2(O)C3=CC(=O)C4CC(O)C(O)CC4(C)C3CCC12C (stereo not drawn)
1.02

Determine from records and report NF-kB SEAP reporter activity for COc1cc(OC2CCN(C)CC2)ccc1Nc1ncc2c(n1)n(C1CCCC1)c(=O)n2C
1.11

Determine from records and report NF-kB SEAP reporter activity for CC1CN(CC(=O)Nc2ccc3c(c2)Cc2cccc(-c4cc(=O)cc(N5CCOCC5)o4)c2S3)CC(C)O1 (stereo not drawn)
1.54

Determine from records and report NF-kB SEAP reporter activity for Cn1c(=O)cc(C(=O)Nc2ccc3c(c2)OCCO3)c2ccccc21
0.997

Determine from records and report NF-kB SEAP reporter activity for O=C1Nc2ccc(CN3C(=O)CSC3=O)cc2/C1=C/c1cc(CN2CCOCC2)c[nH]1
1.07

Determine from records and report NF-kB SEAP reporter activity for N#Cc1cc(N2CCC(C(=O)N3N=CCC3c3cc(F)cc(F)c3)CC2)ncn1 (stereo not drawn)
1.09

Determine from records and report NF-kB SEAP reporter activity for C=CC1CN2CCC1CC2C(O)c1ccnc2ccc(OC)cc12.C=CC1CN2CCC1CC2C(O)c1ccnc2ccc(OC)cc12.O.O.O=S(=O)(O)O (stereo not drawn)
1.06

Determine from records and report NF-kB SEAP reporter activity for CC1(Cn2ccnn2)C(C(=O)O)N2C(=O)CC2S1(=O)=O (stereo not drawn)
1.06

Determine from records and report NF-kB SEAP reporter activity for COC(=O)NC(C(=O)NC(Cc1ccccc1)C(O)CN(Cc1ccc(-c2ccccn2)cc1)NC(=O)C(NC(=O)OC)C(C)(C)C)C(C)(C)C.O=S(=O)(O)O (stereo not drawn)
2.01

Determine from records and report NF-kB SEAP reporter activity for CN1c2ccccc2C(=O)Nc2cnc(Nc3ccc(N4CCC(O)CC4)cc3)nc21
0.788

Determine from records and report NF-kB SEAP reporter activity for Cc1nc2cc(F)c(F)cc2n1-c1cncc(Nc2ccc(C(F)(F)F)cc2)n1
1.56

Determine from records and report NF-kB SEAP reporter activity for CC1COC2Cn3cc(C(=O)NCc4ccc(F)cc4F)c(=O)c(O)c3C(=O)N12 (stereo not drawn)
0.969

Determine from records and report NF-kB SEAP reporter activity for Nc1nc(=O)n(C2CSC(CO)O2)cc1F (stereo not drawn)
0.983

Determine from records and report NF-kB SEAP reporter activity for CCCC1CC(C(=O)NC(C(C)Cl)C2OC(SC)C(O)C(O)C2O)N(C)C1 (stereo not drawn)
1.02

Determine from records and report NF-kB SEAP reporter activity for C=CC1(C)CC(OC(=O)CSC(C)(C)CNC(=O)C(N)C(C)C)C2(C)C(C)CCC3(CCC(=O)C32)C(C)C1O.Cl (stereo not drawn)
0.86

Determine from records and report NF-kB SEAP reporter activity for O=c1cc(-c2cccc3c2Sc2ccccc2S3)oc(N2CCOCC2)c1
1.04

Determine from records and report NF-kB SEAP reporter activity for CCOC(=O)C(CCc1ccccc1)NC1CCc2ccccc2N(CC(=O)O)C1=O.Cl (stereo not drawn)
0.99

Determine from records and report NF-kB SEAP reporter activity for COc1ccc(CNCc2cccc3ccccc23)cc1.Cl
1.34

Determine from records and report NF-kB SEAP reporter activity for Cc1c(CN2CCN(C(=O)C(C)O)CC2)sc2c(N3CCOCC3)nc(-c3cnc(N)nc3)nc12 (stereo not drawn)
1

Determine from records and report NF-kB SEAP reporter activity for COC1(c2sc3c(N4CCOCC4)nc(-c4cnc(N)nc4)nc3c2C)COC1
0.913

Determine from records and report NF-kB SEAP reporter activity for Cc1c(CN2CCC(Nc3ncnc4sc(CC(F)(F)F)cc34)CC2)ccc2[nH]c(C#N)cc12
0.878

Determine from records and report NF-kB SEAP reporter activity for Cl.Cl.OC(CN1CCN(c2cccc(Cl)c2)CC1)C(c1ccccc1)c1ccccc1 (stereo not drawn)
1.33

Determine from records and report NF-kB SEAP reporter activity for CC(C)(CNC(=O)c1cccc(-c2noc(C(F)(F)F)n2)c1)c1coc(-c2ccccc2)n1
0.959

Determine from records and report NF-kB SEAP reporter activity for CC1(C)OC2COC3(COS(N)(=O)=O)OC(C)(C)OC3C2O1 (stereo not drawn)
0.928

Determine from records and report NF-kB SEAP reporter activity for Nc1nonc1/C(=N\O)Nc1ccc(F)c(Cl)c1
0.904

Determine from records and report NF-kB SEAP reporter activity for Fc1ccc(CNc2ncnc3ccc(F)cc23)cc1
0.988

Determine from records and report NF-kB SEAP reporter activity for NC(=O)c1cccc2nc(-c3ccc(C4CCCN4)cc3F)[nH]c12 (stereo not drawn)
1.14

Determine from records and report NF-kB SEAP reporter activity for Cc1cc(Nc2nc(NC(C)c3ccc(F)cc3)c(C#N)cc2F)n[nH]1 (stereo not drawn)
1

Determine from records and report NF-kB SEAP reporter activity for COc1cc2c(cc1Cc1cccc(Cl)c1F)c(=O)c(C(=O)O)cn2C(CO)C(C)C (stereo not drawn)
1.06

Determine from records and report NF-kB SEAP reporter activity for CC(=O)OC1CC2CCC3C(CCC4(C)C3CC([N+]3(C)CCCCC3)C4OC(C)=O)C2(C)CC1N1CCCCC1 (stereo not drawn)
0.939

Determine from records and report NF-kB SEAP reporter activity for CC#CC(=O)N1CCC(n2c(=O)n(-c3ccc(Oc4ccccc4)cc3)c3c(N)ncnc32)C1.Cl (stereo not drawn)
0.734

Determine from records and report NF-kB SEAP reporter activity for CC(NC(=O)C(NC(=O)OCc1ccccc1)C(C)C)C(=O)NC(CC(=O)O)C(=O)CF (stereo not drawn)
0.964

Determine from records and report NF-kB SEAP reporter activity for O=C(O)c1ccc(/C=C2/SC(=S)N(Cc3cccc(C(F)(F)F)c3)C2=O)cc1
0.954

Determine from records and report NF-kB SEAP reporter activity for CN(c1ncccc1CNc1nc(Nc2ccc3c(c2)CC(=O)N3)ncc1C(F)(F)F)S(C)(=O)=O.O=S(=O)(O)c1ccccc1
1.02

Determine from records and report NF-kB SEAP reporter activity for Brc1ccc(C2CN3CCSC3=N2)cc1.O=C(O)C(=O)O (stereo not drawn)
0.948

Determine from records and report NF-kB SEAP reporter activity for CC(C)NCC(C(=O)N1CCN(c2ncnc3c2C(C)CC3O)CC1)c1ccc(Cl)cc1 (stereo not drawn)
1.27
